target desc: CDK9/cyclinT1 complex (Homo sapiens)
Sequence (P50750 whole entry, species assumed): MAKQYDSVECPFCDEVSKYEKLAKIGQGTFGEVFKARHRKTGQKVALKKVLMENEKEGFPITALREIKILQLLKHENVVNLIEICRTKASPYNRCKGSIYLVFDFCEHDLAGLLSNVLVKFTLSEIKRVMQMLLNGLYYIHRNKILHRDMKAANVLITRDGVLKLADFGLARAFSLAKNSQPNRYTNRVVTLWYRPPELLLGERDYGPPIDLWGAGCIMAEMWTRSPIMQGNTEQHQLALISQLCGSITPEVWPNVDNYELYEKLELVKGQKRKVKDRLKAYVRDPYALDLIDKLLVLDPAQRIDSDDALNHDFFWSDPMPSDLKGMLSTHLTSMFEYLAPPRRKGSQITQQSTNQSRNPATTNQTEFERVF
Sequence (O60563 whole entry partner, species assumed): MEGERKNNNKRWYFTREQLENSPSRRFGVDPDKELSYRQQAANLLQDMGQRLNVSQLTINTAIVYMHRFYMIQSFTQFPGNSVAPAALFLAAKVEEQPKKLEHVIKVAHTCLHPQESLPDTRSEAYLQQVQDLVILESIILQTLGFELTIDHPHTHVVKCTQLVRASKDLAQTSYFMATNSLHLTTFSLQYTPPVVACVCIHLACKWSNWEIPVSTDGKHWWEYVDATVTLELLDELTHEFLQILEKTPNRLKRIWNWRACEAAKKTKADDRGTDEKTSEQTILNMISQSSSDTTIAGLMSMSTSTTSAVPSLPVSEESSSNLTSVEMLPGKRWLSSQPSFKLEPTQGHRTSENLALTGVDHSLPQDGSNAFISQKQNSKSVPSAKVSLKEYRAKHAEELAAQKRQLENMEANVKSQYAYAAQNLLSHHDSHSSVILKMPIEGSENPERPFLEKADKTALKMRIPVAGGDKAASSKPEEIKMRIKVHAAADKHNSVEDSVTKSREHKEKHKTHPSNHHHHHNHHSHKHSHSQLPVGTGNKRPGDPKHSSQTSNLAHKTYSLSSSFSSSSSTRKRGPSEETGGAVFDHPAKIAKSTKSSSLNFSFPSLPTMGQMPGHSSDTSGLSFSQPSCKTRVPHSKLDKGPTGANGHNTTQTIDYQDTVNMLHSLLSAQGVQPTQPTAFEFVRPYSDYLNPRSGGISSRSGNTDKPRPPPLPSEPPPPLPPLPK
measurement protocol: In-vitro enzymatic inhibitory activity testing, CDK9 inhibition assay (Caliper EZ Reader II)
assay setup: CDK9/cyclinT1 8 nM, 180 min at 27° C.
quantity: IC50

These solved cases illustrate the format of a correct answer.
compound	measured value
FC(F)(F)c1cnc(NC2CCC23CCNC3)nc1-c1c[nH]c2nc(N3CCOCC3)ccc12 (centres unmarked)	5 to 50 µM
CP(C)(=O)c1cccc2c(-c3nc(NCC4CC4CO)ncc3C(F)(F)F)c[nH]c12 (single isomer, unassigned) [Compound 143]	> 50 µM
CC(O)[C@H](C)Nc1ncc(C(F)(F)F)c(-c2c[nH]c3c(P(C)(C)=O)cccc23)n1 (single isomer, unassigned) [Compound 130]	> 50 µM
CN(C)CC1CCCC1Nc1ncc(C(F)(F)F)c(-c2c[nH]c3c(P(C)(C)=O)cccc23)n1 (single isomer, unassigned) [Compound 136]	> 50 µM
CC(C)C(O)CNc1ncc(C(F)(F)F)c(-c2c[nH]c3c(P(C)(C)=O)cccc23)n1 (centres unmarked)	> 50 µM

Moving on to the next compound.
Which IC50 value is on record for "CC(C)(O)CNc1ncc(C(F)(F)F)c(-c2c[nH]c3c(P(C)(C)=O)cccc23)n1" ? > 50 µM
